Target protein (sequence): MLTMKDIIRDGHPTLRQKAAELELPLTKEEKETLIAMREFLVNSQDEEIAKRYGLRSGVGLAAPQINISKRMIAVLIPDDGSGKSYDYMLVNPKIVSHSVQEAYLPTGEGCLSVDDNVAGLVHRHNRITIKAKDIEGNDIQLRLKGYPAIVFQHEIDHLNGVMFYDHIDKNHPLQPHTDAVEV
REPORTED METRIC: IC50 (µM)
Numbers only here, please. The scale is µM.

Let me know recorded IC50 for CC1CCC/C=C/CCC(=O)CCC/C=C\C=C\[C@@H](O)C/C=C/C=C\C(=O)O1 (stereo partly specified) , thanks.
7.5
